system: TO-3-N3-2 (biotin conjugate); assay: pull-down binding Z-score (relative to library population); higher = stronger binding; details: RNA library: Library-2
List of pull-down binding Z-score values.
measured.property: pull-down binding Z-score

sequence.text | system.under.test | reported.result
AAUAACUUACCUUUUAAGUUGACAUGUGCAACUACUAGACAAGUUGUU | TO-3-N3-2 (biotin conjugate) | -0.415
UAACACCAGGAACAAAUACUUCUAACCAGGUUGCUGUUCUUUAUCAGGGUGUUA [SHAPE_invivo_SARS-CoV-2_Motif_440] | TO-3-N3-2 (biotin conjugate) | -0.22
GAUGGAUUCUUAUGCUCCAUC [hsa-mir-136] | TO-3-N3-2 (biotin conjugate) | -0.443
UUUAAGACACCCUGUACCUUAAA [hsa-mir-3121] | TO-3-N3-2 (biotin conjugate) | -0.305
AUUGGUGCAGGUAUAUGCGCUAGU | TO-3-N3-2 (biotin conjugate) | -0.674
CCCAUCCGUGGGUGGG [IAV_invivo_NA_6_Motif_4+IAV_invivo_NA_6_Motif_4] | TO-3-N3-2 (biotin conjugate) | -0.239
GUGGGGUAUUCAUCACCCGC [IAV_invivo_HA_4_Motif_9+IAV_invivo_HA_4_Motif_9] | TO-3-N3-2 (biotin conjugate) | 0.689
AAAAUUACUUUUGGUAAAUACAGUUUU [hsa-mir-559] | TO-3-N3-2 (biotin conjugate) | 0.00825
CCCAUAAGGGUCGAAUGGG [hsa-mir-4713] | TO-3-N3-2 (biotin conjugate) | -0.0623
GUGUACCUUCCUUACCCAGAUCCAUCAAGAAUCCUAGGGGCCGGCUGUUUUGUAGAUGAUAUCGUAAAAACAGAUGGUACAC [SHAPE_invivo_SARS-CoV-2_Multi_39_ComplexLevel_1] | TO-3-N3-2 (biotin conjugate) | -0.087
UAUUGAAAUCAAUA | TO-3-N3-2 (biotin conjugate) | -0.77
GAAUGGAGAACGCAGUGGGGCGCGAUCAAAACAACGUCGGCCCCAAGGUUUACCCAAUAAUACUGCGUCUUGGUUC | TO-3-N3-2 (biotin conjugate) | 0.382
AUGGCUGAUCAAGCUAU [DMSMaPseq_invitro_SARS-CoV-2_Motif_216] | TO-3-N3-2 (biotin conjugate) | -0.583
CUGUUAAUGUAGCAUUUGAGCUUUGGGCUAAGCGCAACAUUAAACCAG | TO-3-N3-2 (biotin conjugate) | -0.268
GGGCUCGUGAUGGCUGGUGGGCCC [hsa-mir-345] | TO-3-N3-2 (biotin conjugate) | -0.191
GGACUUGAAAGAGCC | TO-3-N3-2 (biotin conjugate) | -0.442
CUGGAAUUGCCGUUUUAG [SHAPE_invivo_SARS-CoV-2_Motif_210] | TO-3-N3-2 (biotin conjugate) | -0.112
UGUUGGUUGAAGAUGCCUUUCAACA [hsa-mir-552] | TO-3-N3-2 (biotin conjugate) | -0.396
CUUUCCUCAGCUGAUUUCUUUCUGGGGAGAG [hsa-mir-5186] | TO-3-N3-2 (biotin conjugate) | -0.279
AGCCUUCUAUUAUGCCCAGACAGGGCCACCAGAGGGCU [hsa-mir-4448] | TO-3-N3-2 (biotin conjugate) | -0.619
AGGCCGUUGCCAAUCAGAGAACGGCUA [hsa-mir-138-1] | TO-3-N3-2 (biotin conjugate) | 0.52
